Please go through the items and note down their AC50.
Molecular target: 5-hydroxytryptamine receptor 2A (Homo sapiens, UniProt P28223); further: assay procedure not described here
Sequence (P28223 whole entry): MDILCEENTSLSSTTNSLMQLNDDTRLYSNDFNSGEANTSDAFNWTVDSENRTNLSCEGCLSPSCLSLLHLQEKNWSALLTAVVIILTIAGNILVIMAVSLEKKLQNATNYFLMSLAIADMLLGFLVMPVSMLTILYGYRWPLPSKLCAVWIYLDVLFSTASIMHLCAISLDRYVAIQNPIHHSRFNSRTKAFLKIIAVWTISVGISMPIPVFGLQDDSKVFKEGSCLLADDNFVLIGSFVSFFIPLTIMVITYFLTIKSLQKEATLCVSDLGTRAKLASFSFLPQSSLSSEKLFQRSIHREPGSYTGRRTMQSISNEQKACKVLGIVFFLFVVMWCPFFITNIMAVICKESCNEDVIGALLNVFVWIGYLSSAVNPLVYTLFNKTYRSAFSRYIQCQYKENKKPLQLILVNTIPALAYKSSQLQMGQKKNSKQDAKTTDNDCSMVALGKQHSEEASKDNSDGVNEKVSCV
Type: functional, cell-based

Recorded results for 3 molecules are shown here.
COc1ccc(CCNCC(O)COc2cccc(C)c2)cc1OC (stereo not drawn)
> 10 µM
CC(C)C(=O)c1c(C(C)C)nn2ccccc12
> 30 µM
C/C(O)=C(\C#N)C(=O)Nc1ccc(C(F)(F)F)cc1 [TERIFLUNOMIDE]
> 30 µM

Here are 4 molecules. What values of AC50 were reported for them?
1. CN1C(C(=O)Nc2ccccn2)=C(O)c2sc(Cl)cc2S1(=O)=O
2. C=CCC1(CC(C)C)C(=O)NC(=O)NC1=O
3. CC(CC1c2ccccc2CCc2ccccc21)CN(C)C (stereo not drawn)
4. CC1(C)NC(=O)N(c2ccc([N+](=O)[O-])c(C(F)(F)F)c2)C1=O [NILUTAMIDE]

*A*
1: > 30 µM; 2: > 10 µM; 3: > 30 µM; 4: > 30 µM

Would you mind giving AC50 for every molecule in the list below?
1. CN1CCC(=C2c3ccccc3CCc3sccc32)CC1
2. COCCCN1CCC(NC(=O)c2cc(Cl)c(N)c3c2OCC3)CC1 [PRUCALOPRIDE]
3. CCCCCCOc1ccccc1C(N)=O [EXALAMIDE]

*A*
1. > 30 µM
2. > 30 µM
3. > 30 µM

For each of the items listed, what is its AC50?
1. COc1ccccc1OCC(O)CN1CCN(CC(=O)Nc2c(C)cccc2C)CC1 (stereo not drawn)
2. CN1C(=O)C(O)N=C(c2ccccc2)c2cc(Cl)ccc21 (stereo not drawn)
3. COc1ccccc1OCCNCC(O)c1ccc(C)c(S(N)(=O)=O)c1 (stereo not drawn)
4. CO/N=C(\C(=O)N[C@@H]1C(=O)N2C(C(=O)O)=C(CSc3nnnn3C)CS[C@H]12)c1csc(N)n1

*A*
> 30 µM
> 30 µM
> 30 µM
> 30 µM

Hi! Can you tell me AC50 for each of these molecules?
1. CO[C@@H]1[C@@H](O[C@@H]2O[C@H](C)[C@@H](O[C@H]3C[C@@](C)(O)[C@@H](OC(=O)CC(C)C)[C@H](C)O3)[C@H](N(C)C)[C@H]2O)[C@@H](CC=O)C[C@@H](C)[C@@H](O)/C=C/C=C/C[C@@H](C)OC(=O)C[C@H]1OC(C)=O
2. CCCC(C)C1(CC)C(=O)NC(=O)NC1=O (stereo not drawn)
3. CC(C)(C)C(=O)Oc1ccc(S(=O)(=O)Nc2ccccc2C(=O)NCC(=O)O)cc1
4. COc1ccccc1N1CCN(CC(O)COc2cccc3ccccc23)CC1 (stereo not drawn)

*A*
1. > 10 µM
2. > 10 µM
3. > 30 µM
4. > 30 µM

====

Molecular target: Alpha-2A adrenergic receptor (Homo sapiens, UniProt P08913); further: assay procedure not described here
Sequence (P08913 whole entry): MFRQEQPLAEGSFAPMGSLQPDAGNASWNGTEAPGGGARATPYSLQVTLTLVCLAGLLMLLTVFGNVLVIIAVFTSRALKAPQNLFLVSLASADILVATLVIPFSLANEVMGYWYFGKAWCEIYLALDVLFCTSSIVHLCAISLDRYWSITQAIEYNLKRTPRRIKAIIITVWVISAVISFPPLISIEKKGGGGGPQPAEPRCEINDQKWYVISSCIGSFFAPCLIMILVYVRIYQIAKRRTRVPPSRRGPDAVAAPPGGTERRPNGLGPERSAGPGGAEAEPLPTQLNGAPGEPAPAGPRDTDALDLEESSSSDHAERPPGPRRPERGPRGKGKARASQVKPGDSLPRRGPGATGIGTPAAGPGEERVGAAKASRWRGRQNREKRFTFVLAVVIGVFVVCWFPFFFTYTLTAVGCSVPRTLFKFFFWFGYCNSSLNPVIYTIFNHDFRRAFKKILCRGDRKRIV
Format: functional, cell-based
readout_type: AC50

CC(C)(C)c1cc(C(C)(C)C)c(NC(=O)c2c[nH]c3ccccc3c2=O)cc1O
> 10 µM
CC1(C)NC(=O)N(c2ccc([N+](=O)[O-])c(C(F)(F)F)c2)C1=O [NILUTAMIDE]
> 30 µM
CN1C(C(=O)Nc2ccccn2)=C(O)c2sc(Cl)cc2S1(=O)=O
> 10 µM
CCOC(=O)[N-]c1cn(N2CCOCC2)n[o+]1
> 30 µM
O=C1C(O)=C([C@H]2CC[C@H](c3ccc(Cl)cc3)CC2)C(=O)c2ccccc21
> 30 µM
Nc1ccn([C@H]2CC[C@@H](CO)O2)c(=O)n1
> 10 µM

Provide each entry's AC50 from the list below.
1. CC(=O)O[C@H]1CC[C@@]2(C)C(=CC[C@@H]3[C@@H]2CC[C@]2(C)C(c4cccnc4)=CC[C@@H]32)C1 [ABIRATERONE ACETATE]
2. COCCCN1CCC(NC(=O)c2cc(Cl)c(N)c3c2OCC3)CC1 [PRUCALOPRIDE]
3. C#C[C@]1(O)CC[C@H]2[C@@H]3[C@H](C)CC4=C(CCC(=O)C4)[C@H]3CC[C@@]21C
4. COc1cccc(C2(O)CCCCC2CN(C)C)c1 (stereo not given)

*A*
1. > 30 µM
2. > 30 µM
3. > 30 µM
4. > 10 µM

====

I'd appreciate it if you could supply AC50 values for the items below.
Biological target: Histamine H3 receptor (Homo sapiens, UniProt Q9Y5N1); further: assay procedure not described here
Sequence (Q9Y5N1 whole entry): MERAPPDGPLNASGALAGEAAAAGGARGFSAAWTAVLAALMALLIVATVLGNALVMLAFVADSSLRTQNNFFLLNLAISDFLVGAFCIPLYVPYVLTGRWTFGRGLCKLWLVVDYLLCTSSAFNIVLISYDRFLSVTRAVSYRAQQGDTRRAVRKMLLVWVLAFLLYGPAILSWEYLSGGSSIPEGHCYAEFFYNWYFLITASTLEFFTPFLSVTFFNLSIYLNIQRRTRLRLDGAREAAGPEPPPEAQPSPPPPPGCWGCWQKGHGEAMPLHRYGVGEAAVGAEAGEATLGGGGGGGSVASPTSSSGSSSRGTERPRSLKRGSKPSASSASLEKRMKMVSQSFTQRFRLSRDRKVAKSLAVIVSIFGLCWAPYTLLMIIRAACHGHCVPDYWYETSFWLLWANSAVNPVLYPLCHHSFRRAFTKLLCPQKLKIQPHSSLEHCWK

Hello, I would appreciate it if you could give AC50 for each entry below.
1. CN(C)CCC=C1c2ccccc2C(C)(C)c2ccccc21
2. Cn1nnc2c(C(N)=O)ncn2c1=O [TEMOZOLOMIDE]
3. CC(C)(C)C(=O)Oc1ccc(S(=O)(=O)Nc2ccccc2C(=O)NCC(=O)O)cc1
4. Cc1cccc(C(C)c2cnc[nH]2)c1C (stereo not given)
5. CCCN(CCC)C(=O)C(CCC(=O)O)NC(=O)c1ccccc1 (stereo not given) [PROGLUMIDE]
6. N#Cc1ccc([C@H]2CCc3cncn32)c(F)c1

*A*
["25 µM", "> 30 µM", "> 30 µM", "> 30 µM", "> 30 µM", "> 10 µM"]

# per-item lookup of AC50; items listed below
1. CNC1Cc2ccccc2N(C)c2ccccc21 (stereo not given)
2. COc1ccc(-c2ccc3cc(C(=O)O)ccc3c2)cc1C12CC3CC(CC(C3)C1)C2

*A*
1. > 30 µM
2. > 30 µM

Hi there! I need AC50 for each item below, if you can.
1. Nc1nc(N)nc(-c2cc(Cl)ccc2Cl)n1
2. Clc1ccccc1C(c1ccccc1)(c1ccccc1)n1ccnc1

*A*
["> 30 µM", "> 10 µM"]

====

Task for the reader: assign each of the following molecules its reported AC50.
Molecular target: Growth hormone secretagogue receptor type 1 (Homo sapiens); further: assay procedure not described here
Sequence (Q92847 whole entry): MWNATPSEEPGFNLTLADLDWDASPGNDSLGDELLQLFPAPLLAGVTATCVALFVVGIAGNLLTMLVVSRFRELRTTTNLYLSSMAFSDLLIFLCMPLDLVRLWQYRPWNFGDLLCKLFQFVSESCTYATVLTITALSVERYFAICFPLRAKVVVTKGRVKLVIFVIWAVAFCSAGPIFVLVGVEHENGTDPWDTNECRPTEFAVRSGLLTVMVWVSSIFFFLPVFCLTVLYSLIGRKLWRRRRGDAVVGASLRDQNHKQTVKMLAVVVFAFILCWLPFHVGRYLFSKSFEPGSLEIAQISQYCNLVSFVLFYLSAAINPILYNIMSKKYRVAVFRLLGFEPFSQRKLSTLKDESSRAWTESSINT

Use the examples below as a reference point.
O=C(O)C1=C(CSc2nnnn2CS(=O)(=O)O)CS[C@@H]2[C@H](NC(=O)[C@H](O)c3ccccc3)C(=O)N12
> 30 µM
Nc1nc(NC2CC2)c2ncn([C@H]3C=C[C@@H](CO)C3)c2n1
> 30 µM
COC(=O)C1=C(C)NC(C)=C(C(=O)OC2CCCN(Cc3ccccc3)C2)C1c1cccc([N+](=O)[O-])c1 (centres undefined)
26 µM

*Q* Quickly give me recorded AC50 for C[N+]1(C)CCC(OC(=O)C(O)(c2ccccc2)C2CCCC2)C1 (centres undefined) [GLYCOPYRRONIUM BROMIDE]
*A* > 30 µM

====

I'd be grateful if you could share measured AC50 for these entries.
Target: Progesterone receptor (Homo sapiens, UniProt P06401); further: assay procedure not described here
Sequence (P06401 whole entry): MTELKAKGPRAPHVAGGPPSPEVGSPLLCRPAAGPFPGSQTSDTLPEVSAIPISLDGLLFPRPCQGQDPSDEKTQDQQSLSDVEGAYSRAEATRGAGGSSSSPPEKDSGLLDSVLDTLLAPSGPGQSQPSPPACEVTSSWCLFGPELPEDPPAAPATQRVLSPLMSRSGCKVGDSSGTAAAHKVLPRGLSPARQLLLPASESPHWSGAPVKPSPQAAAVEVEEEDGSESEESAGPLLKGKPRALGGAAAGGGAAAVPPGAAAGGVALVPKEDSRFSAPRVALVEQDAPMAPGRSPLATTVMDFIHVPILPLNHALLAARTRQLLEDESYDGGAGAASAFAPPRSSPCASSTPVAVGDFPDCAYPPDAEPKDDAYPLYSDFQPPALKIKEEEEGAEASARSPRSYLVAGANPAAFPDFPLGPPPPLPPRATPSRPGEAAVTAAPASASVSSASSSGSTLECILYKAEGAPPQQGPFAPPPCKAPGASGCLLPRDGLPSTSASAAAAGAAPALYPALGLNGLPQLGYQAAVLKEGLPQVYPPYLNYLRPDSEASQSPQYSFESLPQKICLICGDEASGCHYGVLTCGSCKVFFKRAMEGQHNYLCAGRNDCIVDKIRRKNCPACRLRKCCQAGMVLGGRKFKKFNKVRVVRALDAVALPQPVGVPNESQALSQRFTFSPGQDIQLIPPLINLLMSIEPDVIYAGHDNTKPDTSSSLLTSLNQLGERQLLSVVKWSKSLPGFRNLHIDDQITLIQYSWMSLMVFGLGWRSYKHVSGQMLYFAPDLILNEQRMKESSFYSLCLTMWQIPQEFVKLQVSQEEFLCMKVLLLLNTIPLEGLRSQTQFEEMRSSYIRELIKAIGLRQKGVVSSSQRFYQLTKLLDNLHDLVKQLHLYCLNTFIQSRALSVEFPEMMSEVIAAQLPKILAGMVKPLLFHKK
Type: functional

Illustrative cases are given below, each with its answer.
CCC(C(=O)O)c1ccc(N2Cc3ccccc3C2=O)cc1 (stereo not given)
> 30 µM
O=C(OCC(O)CO)c1ccccc1Nc1ccnc2cc(Cl)ccc12 (stereo not given)
> 30 µM
C=CCC1(CC(C)C)C(=O)NC(=O)NC1=O
> 10 µM
CCCN(CCC)C(=O)C(CCC(=O)O)NC(=O)c1ccccc1 (stereo not given) [PROGLUMIDE]
> 30 µM
COC(=O)[C@H]1[C@H]2C[C@@H]3c4[nH]c5cc(OC)ccc5c4CCN3C[C@H]2C[C@@H](OC(=O)/C=C/c2cc(OC)c(OC)c(OC)c2)[C@@H]1OC
> 10 µM

Provide AC50 for all items below, preserving their order.
1. CCCCCCOc1ccccc1C(N)=O [EXALAMIDE]
2. COC(=O)C1=C(C)NC(C)=C(C(=O)OC(C)(C)CN(C)CCC(c2ccccc2)c2ccccc2)C1c1cccc([N+](=O)[O-])c1 (stereo not given)
3. Clc1ccc(CCCOCCCN2CCCCC2)cc1
4. COCCCN1CCC(NC(=O)c2cc(Cl)c(N)c3c2OCC3)CC1 [PRUCALOPRIDE]
5. O=C(O)C[C@H](O)C[C@H](O)/C=C/c1c(C2CC2)nc2ccccc2c1-c1ccc(F)cc1
6. CC(C)(C)NCC(O)COc1cccc2c1CCC(=O)N2 (stereo not given)
7. C=CCC1(C(C)CC)C(=O)NC(=O)NC1=O (stereo not given)

*A*
1: > 30 µM; 2: > 30 µM; 3: > 30 µM; 4: > 30 µM; 5: > 30 µM; 6: > 10 µM; 7: > 10 µM

Below are 8 molecules. Give each one its AC50.
1. CC1(C)NC(=O)N(c2ccc([N+](=O)[O-])c(C(F)(F)F)c2)C1=O [NILUTAMIDE]
2. CC(CC(c1ccccc1)c1ccccc1)NC(C)(C)C (stereo not given)
3. CCCCCNC(=N)N/N=C/c1c[nH]c2ccc(OC)cc12
4. CC(C)C[C@H]1C(=O)N2CCC[C@H]2[C@]2(O)O[C@](NC(=O)[C@@H]3C=C4c5cccc6[nH]c(Br)c(c56)C[C@H]4N(C)C3)(C(C)C)C(=O)N12
5. COc1ccc(-c2ccc3cc(C(=O)O)ccc3c2)cc1C12CC3CC(CC(C3)C1)C2
6. Cc1cc(C(C)(C)C)c(O)c(C)c1CC1=NCCN1
7. NS(=O)(=O)Cc1noc2ccccc12 [ZONISAMIDE]
8. O=C(O)/C=C/c1ccc(Cn2ccnc2)cc1

*A*
1. > 30 µM
2. > 30 µM
3. > 30 µM
4. > 30 µM
5. 4.2 µM
6. > 30 µM
7. > 10 µM
8. > 30 µM

Parameters: items (list). Returns: AC50 for each item.
1. O=C(O[C@H]1C[C@H]2CC[C@@H](C1)[N+]21CCCC1)C(O)(c1ccccc1)c1ccccc1
2. C[N+]1(C)CCC(OC(=O)C(O)(c2ccccc2)C2CCCC2)C1 (stereo not given) [GLYCOPYRRONIUM BROMIDE]
3. CN1C(=O)CCS(=O)(=O)C1c1ccc(Cl)cc1 (stereo not given)
4. CN(C)/N=N/c1[nH]cnc1C(N)=O
5. COc1cc2nc(N(C)CCCNC(=O)C3CCCO3)nc(N)c2cc1OC (stereo not given)
6. CC(C[N+](C)(C)C)OC(N)=O (stereo not given)
7. CN1C(=O)C(O)N=C(c2ccccc2Cl)c2cc(Cl)ccc21 (stereo not given)

*A*
1. > 30 µM
2. > 10 µM
3. > 10 µM
4. > 10 µM
5. > 30 µM
6. > 10 µM
7. > 30 µM

Could you report AC50 for every entry in the following list?
1. C=CCc1ccccc1OCC(O)CNC(C)C (stereo not given)
2. CCC1(CC)C(=O)NCC(C)C1=O (stereo not given)
3. CC[C@@H](C(N)=O)N1CCCC1=O
4. Cc1c(C(=O)NN2CCCCC2)nn(-c2ccc(Cl)cc2Cl)c1-c1ccc(Cl)cc1

*A*
["> 30 µM", "> 30 µM", "> 30 µM", "> 30 µM"]
